Target: T1, murine IL-21R extracellular domain His-Flag fusion protein (murine, UniProt Q9JHX3 20-237)
T1 construct: Biotinylated in the ELISAs; also called mIL-21R-H/F; murine IL-21R-H/F
Assay: competition ELISA; competitor plate-bound 18A5 IgG
Metric Name: pIC50
Bear in mind: pIC50 is minus log10 of a mol/L concentration; give just that figure.

Look over these answered cases.
Binder	pIC50
scFv L1 (scFv) scFv: QVQLQESGPGLVKTSETLSLTCAVSGYSISSGYYWGWIRQPPGKGLEWIGSISHTGNTYYNPPLKSRVTISVDTSKNQFSLKLSSVTAADTAVYYCARGGGISRPEYWGKGTLVTVSSGGGGSGGGGSGGGGSALSSELTQDPPVSVALGQTVTLTCQGDSLRTYYASWYQQKSGQAPILLLYGKHKRPSGIPDRFSGSTSGDTASLTITGAQAEDEADYYCASRSVSGNPHVLFGGGTQLTVL	8.15
scFv L21 (scFv) scFv: QVQLQESGPGLVKTSETLSLTCAVSGYSISSGYYWGWIRQPPGKGLEWIGSISHTGNTYYNPPLKSRVTISVDTSKNQFSLKLSSVTAADTAVYYCARGGGISRPEYWGKGTLVTVSSGGGGSGGGGSGGGGSALSSELTQDPPVSVALGQTVTLTCQGDSLRTYYASWYQQKSGQAPILLLYGKHKRPSGIPDRFSGSTSGDTASLTITGAQAEDEADYYCATRAVRGNPHVLFGGGTQLTVL	7.55

Moving on to the next binder.
GET /values?readout=pIC50&item= scFv L19 (scFv) scFv: QVQLQESGPGLVKTSETLSLTCAVSGYSISSGYYWGWIRQPPGKGLEWIGSISHTGNTYYNPPLKSRVTISVDTSKNQFSLKLSSVTAADTAVYYCARGGGISRPEYWGKGTLVTVSSGGGGSGGGGSGGGGSALSSELTQDPPVSVALGQTVTLTCQGDSLRTYYASWYQQKSGQAPILLLYGKHKRPSGIPDRFSGSTSGDTASLTITGAQAEDEADYYCVARAVRGNPHVLFGGGTQLTVL 7.82
